Target or system: UniProtKB L7VK28
pIC50: −log10 of the molar value.

[
  {
    "Chem smiles": "C[C@@H]1O[C@@H](O)[C@H](O)[C@H](O)[C@H]1O",
    "pIC50": 2.08
  }
]

----------
Target or system: Tn_Ram106B (Thermotoga neapolitana)
Sequence (B9K9N8 entry or part of it): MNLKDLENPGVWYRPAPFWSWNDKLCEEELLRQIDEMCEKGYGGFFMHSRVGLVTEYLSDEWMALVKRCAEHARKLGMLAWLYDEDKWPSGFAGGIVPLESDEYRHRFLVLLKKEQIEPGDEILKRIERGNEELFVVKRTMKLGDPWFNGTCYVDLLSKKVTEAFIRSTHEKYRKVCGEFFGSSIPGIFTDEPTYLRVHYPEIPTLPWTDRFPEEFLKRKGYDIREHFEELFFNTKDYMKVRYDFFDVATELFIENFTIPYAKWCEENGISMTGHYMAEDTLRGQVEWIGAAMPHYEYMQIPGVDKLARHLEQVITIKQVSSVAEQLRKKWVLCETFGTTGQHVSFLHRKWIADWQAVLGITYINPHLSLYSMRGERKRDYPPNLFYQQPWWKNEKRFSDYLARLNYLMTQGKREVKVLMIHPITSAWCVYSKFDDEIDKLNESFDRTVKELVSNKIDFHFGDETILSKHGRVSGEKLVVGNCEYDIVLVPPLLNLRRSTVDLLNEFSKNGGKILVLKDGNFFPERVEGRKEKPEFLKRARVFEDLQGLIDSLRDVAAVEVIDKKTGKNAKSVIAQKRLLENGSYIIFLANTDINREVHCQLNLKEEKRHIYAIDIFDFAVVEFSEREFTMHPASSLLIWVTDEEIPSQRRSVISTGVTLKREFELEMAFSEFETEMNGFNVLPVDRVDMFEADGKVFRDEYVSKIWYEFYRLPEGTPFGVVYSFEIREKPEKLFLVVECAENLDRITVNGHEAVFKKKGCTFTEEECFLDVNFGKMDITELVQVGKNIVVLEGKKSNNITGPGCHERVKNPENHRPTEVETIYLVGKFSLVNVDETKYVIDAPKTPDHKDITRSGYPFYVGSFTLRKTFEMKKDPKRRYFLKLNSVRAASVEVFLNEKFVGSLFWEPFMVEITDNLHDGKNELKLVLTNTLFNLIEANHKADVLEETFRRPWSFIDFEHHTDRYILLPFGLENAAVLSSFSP

[
  {
    "Compound": "C[C@@H]1O[C@@H](O)[C@H](O)[C@H](O)[C@H]1O [rhamnose]",
    "Unit info": "mM",
    "IC50": 6.5
  }
]

----------
Target or system: Ts_Ram106B (Thermoclostridium stercorarium)
Construct: gene Cst_c00400
Sequence (L7VK28 entry or part of it): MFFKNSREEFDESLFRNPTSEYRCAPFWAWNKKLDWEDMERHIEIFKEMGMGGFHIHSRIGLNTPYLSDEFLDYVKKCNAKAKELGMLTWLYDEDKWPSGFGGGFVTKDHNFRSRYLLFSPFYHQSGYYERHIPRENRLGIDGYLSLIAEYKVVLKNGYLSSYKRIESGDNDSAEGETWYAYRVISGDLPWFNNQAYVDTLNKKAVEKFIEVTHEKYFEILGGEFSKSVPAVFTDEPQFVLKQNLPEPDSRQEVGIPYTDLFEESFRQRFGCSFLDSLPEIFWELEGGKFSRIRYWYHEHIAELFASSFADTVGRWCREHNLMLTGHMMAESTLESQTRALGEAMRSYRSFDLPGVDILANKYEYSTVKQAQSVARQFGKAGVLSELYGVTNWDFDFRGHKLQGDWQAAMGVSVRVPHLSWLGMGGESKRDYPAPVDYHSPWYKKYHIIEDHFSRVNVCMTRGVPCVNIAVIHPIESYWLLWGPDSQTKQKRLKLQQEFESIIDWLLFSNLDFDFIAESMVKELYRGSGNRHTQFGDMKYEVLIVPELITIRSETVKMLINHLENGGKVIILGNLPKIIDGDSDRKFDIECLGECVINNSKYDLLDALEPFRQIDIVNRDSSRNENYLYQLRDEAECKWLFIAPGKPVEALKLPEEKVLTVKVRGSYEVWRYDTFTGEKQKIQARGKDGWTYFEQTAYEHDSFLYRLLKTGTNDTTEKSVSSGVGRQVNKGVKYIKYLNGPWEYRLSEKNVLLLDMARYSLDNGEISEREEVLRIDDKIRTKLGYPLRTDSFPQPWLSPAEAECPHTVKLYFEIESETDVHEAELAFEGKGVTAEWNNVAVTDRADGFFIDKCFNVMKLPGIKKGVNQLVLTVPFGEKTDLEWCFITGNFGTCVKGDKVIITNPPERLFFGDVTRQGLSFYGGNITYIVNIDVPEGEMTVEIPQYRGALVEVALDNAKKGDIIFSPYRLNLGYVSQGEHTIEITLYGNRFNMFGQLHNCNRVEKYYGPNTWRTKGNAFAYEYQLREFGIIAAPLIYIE
Run description: product inhibition of pNPR hydrolysis, pNP absorbance at […] nm
Format: biochemical
Measurement context: read-out: Ki^b, α^b (mM rhamnose)

[
  {
    "Compound": "C[C@@H]1O[C@@H](O)[C@H](O)[C@H](O)[C@H]1O [rhamnose]",
    "Ki, mM": 4.94
  }
]

----------
Target or system: Tn_Ram106B (Thermotoga neapolitana)
Construct: gene CTN_1495
Run description: product inhibition of pNPR hydrolysis, pNP absorbance at […] nm
Type: biochemical
Measurement context: read-out: Ki^b, α^b (mM rhamnose)

[
  {
    "Chem smiles": "C[C@@H]1O[C@@H](O)[C@H](O)[C@H](O)[C@H]1O",
    "Ki, mM": 5.5
  }
]
